List of Difference of pEC50 values, nAChRs compared values.
- Tested on: D. melanogaster nAChRs
- Experiment: Comparison of agonist activity between nAChRs expressed in X. laevis oocytes (one-way ANOVA, Kruskal-Wallis)
- Type: cell-based
- Condition Label: Dα1/Dα2/Dα3/Dβ1/Dβ2 vs. Dα2/Dα3/Dα4/Dβ1/Dβ2
- Protocol: We minimised the use of X. laevis according to the UK Animals (Scientific Procedures) Act, 1986. […] Each defolliculated X. laevis oocyte was secured in a Perspex recording chamber and perfused with the standard oocyte saline (SOS) containing 0.5 μM atropine (SOSA) at a flow rate of 7−10 mL/min [48]. […] The peak amplitude of the response was measured and analysed by pCLAMP (Molecular Devices, USA). […]
Parameter Measured: Difference of pEC50 values, nAChRs compared

> print(dat)
                         given.smiles  assay.result
1  O=[N+]([O-])NC1=NCCN1Cc1ccc(Cl)nc1         -0.93
2                CC(=O)OCC[N+](C)(C)C         -1.00
3  CN/C(=N\[N+](=O)[O-])NCc1cnc(Cl)s1         -0.52
4         N#C/N=C1\SCCN1Cc1ccc(Cl)nc1         -0.81

* * *

- Target System: Dα1/Dα2/Dα3/Dβ1 nAChR (Drosophila melanogaster, UniProt P04755+P09478+P17644+Q9W3G6)
- Construct: Dα1 (NP_524481); Dα2 (NP_524482); Dβ1 (NP_523927)
- Experiment: cell-based
- Condition Label: mean ± standard error (n = 5)
Parameter Measured: EC50 (nM)

> print(dat)
                                   compound  assay.result
1  O=[N+]([O-])NC1=NCCN1Cc1ccc(Cl)nc1 [Imidacloprid, imidacloprid]          83.2
2  CN/C(=N\[N+](=O)[O-])NCc1cnc(Cl)s1 [Clothianidin, clothianidin]           282
3  N#C/N=C1\SCCN1Cc1ccc(Cl)nc1 [Thiacloprid, thiacloprid]          18.6

* * *

- Target System: Dα3/Dβ1 nAChR (Drosophila melanogaster, UniProt P04755+Q9W3G6)
- Construct: Dβ1 (NP_523927); expressed in transfected cells; host or cells: Xenopus laevis oocytes (cRNA injection)
- Experiment: cell-based
- Format: cell-based, D. melanogaster
- Condition Label: Dα3/Dβ1 nAChR; mean ± standard error (n = 5)
pEC50: −log10 of the molar value.
Parameter Measured: pEC50

> print(dat)
                         given.smiles  assay.result
1  CN/C(=N\[N+](=O)[O-])NCc1cnc(Cl)s1          7.54
2  O=[N+]([O-])NC1=NCCN1Cc1ccc(Cl)nc1          8.32
3         N#C/N=C1\SCCN1Cc1ccc(Cl)nc1          7.80

* * *

- Target System: Dα1/Dβ1 nAChR (Drosophila melanogaster, UniProt P04755+P09478)
- Construct: Dα1 (NP_524481); Dβ1 (NP_523927); expressed in transfected cells; host or cells: Xenopus laevis oocytes (cRNA injection)
- Experiment: Voltage-clamp electrophysiology, nAChR expressed in X. laevis oocytes
- Type: cell-based, D. melanogaster
- Condition Label: efficacy, mean ± standard error (n = 5)
Parameter Measured: Imax

> print(dat)
                                   molecule  parameter.measured  assay.result
1  CN/C(=N\[N+](=O)[O-])NCc1cnc(Cl)s1 [Clothianidin, clothianidin]                Imax         0.508
2  N#C/N=C1\SCCN1Cc1ccc(Cl)nc1 [Thiacloprid, thiacloprid]                Imax         0.091
3  O=[N+]([O-])NC1=NCCN1Cc1ccc(Cl)nc1 [Imidacloprid, imidacloprid]                Imax         0.122
4  CC(=O)OCC[N+](C)(C)C [ACh, acetylcholine]                Imax             1

* * *

- Target System: Dα1/Dα2/Dα3/Dβ1 nAChR (Drosophila melanogaster, UniProt P04755+P09478+P17644+Q9W3G6)
- Construct: Dα1 (NP_524481); Dα2 (NP_524482); Dβ1 (NP_523927); expressed in transfected cells; host or cells: Xenopus laevis oocytes (cRNA injection)
- Experiment: cell-based
- Parameters: species or system D. melanogaster
- Condition Label: efficacy, mean ± standard error (n = 5)
Parameter Measured: Imax

> print(dat)
                                   compound  assay.result
1  CN/C(=N\[N+](=O)[O-])NCc1cnc(Cl)s1 [Clothianidin, clothianidin]         0.817
2  CC(=O)OCC[N+](C)(C)C [ACh, acetylcholine]             1
3  N#C/N=C1\SCCN1Cc1ccc(Cl)nc1 [Thiacloprid, thiacloprid]         0.047
4  O=[N+]([O-])NC1=NCCN1Cc1ccc(Cl)nc1 [Imidacloprid, imidacloprid]         0.094

* * *

- Target System: Dα2/Dα3/Dβ1 nAChR (Drosophila melanogaster, UniProt P04755+P17644+Q9W3G6)
- Construct: Dα2 (NP_524482); Dβ1 (NP_523927); expressed in transfected cells; host or cells: Xenopus laevis oocytes (cRNA injection)
- Experiment: Voltage-clamp electrophysiology, nAChR expressed in X. laevis oocytes
- Type: cell-based, D. melanogaster
- Condition Label: efficacy; Dα2/Dα3/Dβ1 nAChR; mean ± standard error (n = 5)
- Experimental: cDNAs of the nAChR subunits and co-factors were cloned into pcDNA3.1 (+) vector (Thermo Fisher Scientific). […] Each defolliculated X. laevis oocyte was secured in a Perspex recording chamber and perfused with the standard oocyte saline (SOS) containing 0.5 μM atropine (SOSA) at a flow rate of 7−10 mL/min [48]. […] The peak amplitude of the response was measured and analysed by pCLAMP (Molecular Devices, USA). […]
List of Imax values.
Parameter Measured: Imax

> print(dat)
                         given.smiles  assay.result
1  O=[N+]([O-])NC1=NCCN1Cc1ccc(Cl)nc1         0.101
2                CC(=O)OCC[N+](C)(C)C             1
3         N#C/N=C1\SCCN1Cc1ccc(Cl)nc1         0.045
4  CN/C(=N\[N+](=O)[O-])NCc1cnc(Cl)s1         0.882

* * *

- Target System: Dα1/Dα3/Dβ1 nAChR (Drosophila melanogaster, UniProt P04755+P09478+Q9W3G6)
- Construct: Dα1 (NP_524481); Dβ1 (NP_523927); expressed in transfected cells; host or cells: Xenopus laevis oocytes (cRNA injection)
- Experiment: cell-based
- Parameters: species or system D. melanogaster
- Condition Label: read-out: EC50
Parameter Measured: EC50 (nM)

> print(dat)
                  given.smiles  unit.info  assay.result
1  N#C/N=C1\SCCN1Cc1ccc(Cl)nc1         nM          8.51

* * *

- Target System: Dα1/Dα2/Dβ1 nAChR (Drosophila melanogaster, UniProt P04755+P09478+P17644)
- Construct: Dα1 (NP_524481); Dα2 (NP_524482); Dβ1 (NP_523927); expressed in transfected cells; host or cells: Xenopus laevis oocytes (cRNA injection)
- Experiment: Voltage-clamp electrophysiology, nAChR expressed in X. laevis oocytes
- Type: cell-based, D. melanogaster
- Condition Label: read-out: EC50
pEC50: −log10 of the molar value.
Parameter Measured: pEC50

> print(dat)
                                   compound  parameter.measured  assay.result
1  N#C/N=C1\SCCN1Cc1ccc(Cl)nc1 [Thiacloprid, thiacloprid]               pEC50          6.92
